system: Sodium-dependent dopamine transporter (Rattus norvegicus)
experimental_protocol: Ratio of [3H]DA uptake to [3H]WIN-binding to DAT in rat brain
Format: tissue-based
Reported Ratio Ki values for a set of compounds

>  <compound>
O[C@H](CN1CCN2C[C@@H]1CC[C@H]2C(c1ccccc1)c1ccccc1)c1ccccc1

>  <system>
Sodium-dependent dopamine transporter (Rattus norvegicus)

>  <Ratio Ki>
0.25

$$$$
>  <compound>
O[C@H](CN1CCN2C[C@@H]1CC[C@H]2C(c1ccccc1)c1ccccc1)c1ccc(F)cc1

>  <system>
Sodium-dependent dopamine transporter (Rattus norvegicus)

>  <Ratio Ki>
0.24

$$$$
>  <compound>
O[C@@H](CN1CCN2C[C@@H]1CC[C@H]2C(c1ccccc1)c1ccccc1)c1ccccc1

>  <system>
Sodium-dependent dopamine transporter (Rattus norvegicus)

>  <Ratio Ki>
0.89

$$$$
>  <compound>
O[C@@H](CN1CCN2C[C@@H]1CC[C@H]2C(c1ccccc1)c1ccccc1)c1ccc(F)cc1

>  <system>
Sodium-dependent dopamine transporter (Rattus norvegicus)

>  <Ratio Ki>
0.46

$$$$
>  <compound>
O[C@@H](Cc1ccccc1)CN1CCN2C[C@@H]1CC[C@H]2C(c1ccccc1)c1ccccc1

>  <system>
Sodium-dependent dopamine transporter (Rattus norvegicus)

>  <Ratio Ki>
0.35

$$$$
>  <compound>
O[C@@H](CN[C@H]1CC[C@@H](C(c2ccccc2)c2ccccc2)NC1)Cc1ccccc1

>  <system>
Sodium-dependent dopamine transporter (Rattus norvegicus)

>  <Ratio Ki>
0.78

$$$$
>  <compound>
O[C@H](CN[C@H]1CC[C@@H](C(c2ccccc2)c2ccccc2)NC1)Cc1ccccc1

>  <system>
Sodium-dependent dopamine transporter (Rattus norvegicus)

>  <Ratio Ki>
0.87

$$$$
>  <compound>
O[C@H](CCN1CCN2C[C@@H]1CC[C@H]2C(c1ccccc1)c1ccccc1)c1ccc(F)cc1

>  <system>
Sodium-dependent dopamine transporter (Rattus norvegicus)

>  <Ratio Ki>
2.1

$$$$
>  <compound>
O[C@H](Cc1ccccc1)CN1CCN2C[C@@H]1CC[C@H]2C(c1ccccc1)c1ccccc1

>  <system>
Sodium-dependent dopamine transporter (Rattus norvegicus)

>  <Ratio Ki>
0.56

$$$$

All values here come from ChEMBL document CHEMBL1143997.
